Collected Fold improvement over hu1G7.v1 values appear next to each entry.
Biological target: T1, human FcRH5 protein fragment (soluble) (human, UniProt Q96RD9 16-851)
T1 construct: whole entry named; also called soluble human FcRH5; Human FcRH5 (BIACORE analyte)
T1 sequence: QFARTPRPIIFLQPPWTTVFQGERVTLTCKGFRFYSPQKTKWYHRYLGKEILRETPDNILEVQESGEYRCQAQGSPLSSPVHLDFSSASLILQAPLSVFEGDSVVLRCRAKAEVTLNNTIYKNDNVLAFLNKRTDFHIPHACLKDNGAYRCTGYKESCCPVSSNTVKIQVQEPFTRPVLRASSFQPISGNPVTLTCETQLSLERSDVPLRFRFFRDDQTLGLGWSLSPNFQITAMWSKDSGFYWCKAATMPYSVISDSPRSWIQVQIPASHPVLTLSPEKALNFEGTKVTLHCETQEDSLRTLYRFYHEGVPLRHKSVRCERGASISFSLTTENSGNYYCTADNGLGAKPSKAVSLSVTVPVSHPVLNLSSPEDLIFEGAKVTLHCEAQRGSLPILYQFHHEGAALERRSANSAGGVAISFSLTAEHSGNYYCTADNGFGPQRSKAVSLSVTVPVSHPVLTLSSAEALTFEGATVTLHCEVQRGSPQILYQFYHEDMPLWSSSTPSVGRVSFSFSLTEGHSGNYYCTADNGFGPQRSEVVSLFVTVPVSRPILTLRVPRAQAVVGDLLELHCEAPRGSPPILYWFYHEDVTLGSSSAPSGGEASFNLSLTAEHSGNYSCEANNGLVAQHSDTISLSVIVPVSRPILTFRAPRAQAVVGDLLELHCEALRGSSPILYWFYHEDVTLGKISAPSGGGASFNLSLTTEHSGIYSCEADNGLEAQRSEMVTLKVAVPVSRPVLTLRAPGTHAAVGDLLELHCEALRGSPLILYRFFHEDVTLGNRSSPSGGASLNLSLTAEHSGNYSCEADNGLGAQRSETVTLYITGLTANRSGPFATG
Experiment: BIACORE, human IgG1, soluble human FcRH5
Your answer should be a plain number; it is taken to be in fold.

Below, each entry is followed by its recorded Fold improvement over hu1G7.v1 result.
1G7.v1D (antibody, human IgG1, V domains shown, human IgG1 with the light chain of hu1G7.v1; also called D (hu1G7.v1 heavy chain L29T)) VH: EVQLVESGPGLVKPSETLSLTCTVSGFSTTRFGVHWVRQPPGKGLEWLGVIWRGGSTDYNAAFMSRLTISKDNSKNQVSLKLSSVTAADTAVYYCSNHYYGSSDYALDNWGQGTLVTVSS VL: DIQMTQSPSSLSASVGDRVTITCKASQDVSNIVVWFQQKPGKSPKLLIYSASYRYTGVPSRFSGSGSGTDFTLTISSLQPEDFATYYCQQHYSSPYTFGQGTKVEIK    2.2
1G7.v1F (antibody, human IgG1, V domains shown, human IgG1 with the light chain of hu1G7.v1; also called F (hu1G7.v1 heavy chain A61P)) VH: EVQLVESGPGLVKPSETLSLTCTVSGFSLTRFGVHWVRQPPGKGLEWLGVIWRGGSTDYNPAFMSRLTISKDNSKNQVSLKLSSVTAADTAVYYCSNHYYGSSDYALDNWGQGTLVTVSS VL: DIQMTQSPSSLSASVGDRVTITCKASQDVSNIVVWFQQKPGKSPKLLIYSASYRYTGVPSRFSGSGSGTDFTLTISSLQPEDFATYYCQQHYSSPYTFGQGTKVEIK    1.2

### Prompt What does the record list as Fold improvement over hu1G7.v1 for 1G7.v1L (antibody, human IgG1, V domains shown, human IgG1 with the light chain of hu1G7.v1; also called L (hu1G7.v1 heavy chain S100P)) VH: EVQLVESGPGLVKPSETLSLTCTVSGFSLTRFGVHWVRQPPGKGLEWLGVIWRGGSTDYNAAFMSRLTISKDNSKNQVSLKLSSVTAADTAVYYCSNHYYGSPDYALDNWGQGTLVTVSS VL: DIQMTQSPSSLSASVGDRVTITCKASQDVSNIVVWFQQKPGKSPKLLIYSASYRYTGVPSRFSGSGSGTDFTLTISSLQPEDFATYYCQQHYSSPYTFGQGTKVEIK ?
### Response 3
